assay: Inhibition of TNF-alpha-induced VCAM1 expression in HPAECs; format: functional, Homo sapiens
pIC50: −log10 of the molar value.
Each entry gets Not satisfied if its pIC50 stays under 5, and Satisfied if its pIC50 is 5 or above.

Hi, just wondering whether `COc1cc(OC)c(-c2cccs2)cc1/C=C/C(=O)c1ccc(C(=O)O)cc1` shows pIC50 of 5 or higher.
Satisfied

Is the recorded value of pIC50 equal to or greater than 5 for this compound? `COc1cc(OCC(CO)CO)c(/C=C/C(=O)c2ccc(C(=O)O)cc2)cc1-c1cccs1`
Not satisfied

Could you please find out whether `COc1cc(OCCCN2CCOCC2)c(/C=C/C(=O)c2ccc(C(=O)O)cc2)cc1-c1cccs1` has pIC50 that meets 5 or exceeds it?
Satisfied

Given `COc1cc(OC)c(-c2nc3ccccc3[nH]2)cc1/C=C/C(=O)c1ccc(C(=O)O)cc1` , state whether its pIC50 is at least 5.
Satisfied

Given the entry `COc1cc(OC)c(-c2cc3ccccc3[nH]2)cc1/C=C/C(=O)c1ccc(C(=O)O)cc1` , answer whether its pIC50 meets or surpasses 5.
Satisfied

Has `CCOc1cc(OC)c(/C=C/C(=O)c2ccc(C(=O)O)cc2)cc1-c1cccs1` a recorded pIC50 greater than or equal to 5?
Satisfied

Assess whether reported pIC50 for `COc1cc(OCC(=O)N2CCOCC2)c(/C=C/C(=O)c2ccc(C(=O)O)cc2)cc1-c1cccs1` sits at 5 or higher.
Satisfied

Dear colleague, could you confirm whether `COc1cc(OCC(CO)CO)c(-c2cccs2)cc1/C=C/C(=O)c1ccc(C(=O)O)cc1` has pIC50 at or above 5?
Not satisfied

Would you say `COc1cc(OC)c(-c2cc3ccccc3s2)cc1/C=C/C(=O)c1ccc(C(=O)O)cc1` shows pIC50 at minimum 5?
Satisfied
